# key: entry, value: pIC50
System: MDA-MB-231
Experiment: Cytotoxicity against human MDA-MB-231 cells after 48 hrs by MTT assay
Type: functional, cell-based
Details: MDA-MB-231, 48 h
pIC50 is a log-scale quantity: -log10 of the concentration expressed in molar.

q: For MDA-MB-231, provide pIC50 of N#Cc1ccc2[nH]cc(C3(c4c[nH]c5ccc(C#N)cc45)C(=O)Nc4ccccc43)c2c1 please.
a: 4.00

Next:
q: For MDA-MB-231, provide pIC50 of Cc1[nH]c2ccc([N+](=O)[O-])cc2c1C1(c2c(C)[nH]c3ccc([N+](=O)[O-])cc23)C(=O)Nc2ccc(Cl)cc21 please.
a: 5.00

q: Input COc1cccc2c1C(=O)c1c(O)c3c(c(O)c1C2=O)C[C@@](O)(C(=O)CO)C[C@@H]3O[C@H]1C[C@H](N)[C@H](O)[C@H](C)O1 [DOXORUBICIN]
a: 5.09

====

System: SK-N-SH
Assay: Cytotoxicity against human SK-N-SH cells after 48 hrs by MTT assay
Format: functional, cell-based
observation-type: pIC50
pIC50 is a log-scale quantity: -log10 of the concentration expressed in molar.

Some solved entries appear below for comparison.
q: State the recorded pIC50 for this entry: COc1cccc2c1C(=O)c1c(O)c3c(c(O)c1C2=O)C[C@@](O)(C(=O)CO)C[C@@H]3O[C@H]1C[C@H](N)[C@H](O)[C@H](C)O1 [DOXORUBICIN]
a: 6.01

q: Input O=C1Nc2ccccc2C1(c1c[nH]c2ccc([N+](=O)[O-])cc12)c1c[nH]c2ccc([N+](=O)[O-])cc12
a: 6.00

Attention now turns to another entry.
q: State the recorded pIC50 for this entry: Cc1[nH]c2ccccc2c1C1(c2c(C)[nH]c3ccccc23)C(=O)Nc2ccccc21
a: 6.01

====

Tested on: MDA-MB-231
Experiment: Cytotoxicity against human MDA-MB-231 cells after 48 hrs by MTT assay
Assay type: functional, cell-based
Details: MDA-MB-231, 48 h
observation-type: IC50

q: State the recorded IC50 for this entry: O=C1Nc2ccccc2C1(c1c[nH]c2ccccc12)c1c[nH]c2ccccc12
a: > 100 µM

q: Input O=C1Nc2ccccc2C1(c1c(-c2ccccc2)[nH]c2ccccc12)c1c(-c2ccccc2)[nH]c2ccccc12
a: > 100 µM

q: Input Cc1[nH]c2ccccc2c1C1(c2c(C)[nH]c3ccccc23)C(=O)Nc2ccccc21
a: > 100 µM

q: Input COC(=O)c1ccc2[nH]cc(C3(c4c[nH]c5ccc(C(=O)OC)cc45)C(=O)Nc4ccccc43)c2c1
a: > 100 µM

Measured values drawn from ChEMBL document CHEMBL2010663 for this set.
